pKi: −log10 of the molar value.
# ATP-dependent translocase ABCB1 (Homo sapiens, UniProt P08183): pKi values follow
# Sequence (P08183 whole entry): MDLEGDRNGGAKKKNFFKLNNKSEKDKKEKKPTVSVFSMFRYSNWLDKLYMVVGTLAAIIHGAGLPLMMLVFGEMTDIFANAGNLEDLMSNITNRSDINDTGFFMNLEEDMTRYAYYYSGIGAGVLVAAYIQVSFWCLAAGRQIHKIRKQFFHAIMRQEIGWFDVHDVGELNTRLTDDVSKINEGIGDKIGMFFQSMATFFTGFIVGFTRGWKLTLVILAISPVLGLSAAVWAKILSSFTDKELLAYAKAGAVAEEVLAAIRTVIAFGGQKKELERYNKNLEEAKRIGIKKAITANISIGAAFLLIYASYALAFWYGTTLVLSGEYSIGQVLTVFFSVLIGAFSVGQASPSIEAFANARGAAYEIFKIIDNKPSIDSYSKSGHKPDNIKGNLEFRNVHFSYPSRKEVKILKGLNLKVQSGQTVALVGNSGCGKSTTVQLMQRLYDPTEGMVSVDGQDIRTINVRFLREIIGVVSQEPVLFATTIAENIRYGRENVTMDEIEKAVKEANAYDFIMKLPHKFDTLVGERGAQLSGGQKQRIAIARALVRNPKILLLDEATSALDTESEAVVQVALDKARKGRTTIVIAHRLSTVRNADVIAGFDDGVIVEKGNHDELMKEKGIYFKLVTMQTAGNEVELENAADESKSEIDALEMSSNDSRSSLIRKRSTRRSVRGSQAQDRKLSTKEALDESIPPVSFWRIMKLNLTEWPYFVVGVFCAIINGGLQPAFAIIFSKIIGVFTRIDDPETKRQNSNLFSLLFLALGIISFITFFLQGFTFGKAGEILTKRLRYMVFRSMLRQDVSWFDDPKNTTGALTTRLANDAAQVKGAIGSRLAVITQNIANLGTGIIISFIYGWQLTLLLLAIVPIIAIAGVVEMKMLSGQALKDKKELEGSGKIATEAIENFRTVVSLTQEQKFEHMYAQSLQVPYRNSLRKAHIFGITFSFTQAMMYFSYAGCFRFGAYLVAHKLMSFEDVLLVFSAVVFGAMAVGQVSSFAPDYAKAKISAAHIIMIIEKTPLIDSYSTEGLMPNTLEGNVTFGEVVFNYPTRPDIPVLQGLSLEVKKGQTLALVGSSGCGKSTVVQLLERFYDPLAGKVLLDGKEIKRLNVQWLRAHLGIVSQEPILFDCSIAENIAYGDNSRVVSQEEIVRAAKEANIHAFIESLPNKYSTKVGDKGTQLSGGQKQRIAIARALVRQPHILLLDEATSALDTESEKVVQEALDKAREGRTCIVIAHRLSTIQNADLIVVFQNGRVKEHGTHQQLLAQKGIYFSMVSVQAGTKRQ

{"compound": "COc1cc(CC(C)N)cc(OC)c1OC (configuration not stated)", "pKi": "< 5.00"}

Recorded pKi (compound CCc1cc(OC)c(CC(C)N)cc1OC (configuration not stated) ): < 5.00

====

- subjectOfTest: Muscarinic acetylcholine receptor M4 (Homo sapiens, UniProt P08173)
- Sequence (P08173 whole entry): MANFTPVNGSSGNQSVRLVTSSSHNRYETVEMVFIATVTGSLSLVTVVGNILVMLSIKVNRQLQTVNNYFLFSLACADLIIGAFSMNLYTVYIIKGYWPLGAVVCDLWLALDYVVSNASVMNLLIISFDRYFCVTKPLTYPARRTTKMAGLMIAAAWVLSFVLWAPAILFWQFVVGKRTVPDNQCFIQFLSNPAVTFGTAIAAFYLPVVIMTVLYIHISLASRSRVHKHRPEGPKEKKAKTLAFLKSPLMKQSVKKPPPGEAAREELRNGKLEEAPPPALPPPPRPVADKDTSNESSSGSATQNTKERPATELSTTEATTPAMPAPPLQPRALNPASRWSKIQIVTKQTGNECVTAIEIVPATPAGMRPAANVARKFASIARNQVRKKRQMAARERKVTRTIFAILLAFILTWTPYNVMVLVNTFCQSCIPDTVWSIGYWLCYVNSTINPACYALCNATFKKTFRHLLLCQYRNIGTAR
observedProperty: Ki

Example entries begin here.
{"compound": "CNC(C)Cc1ccc2c(c1)OCO2 (configuration not stated)", "assayValue": "8.25 µM"}
{"compound": "CCc1[nH]c2ccc(OC)cc2c1CCN(C)C", "assayValue": "> 10 µM"}
{"compound": "COc1ccc2[nH]cc(CCN(C)C(C)C)c2c1", "assayValue": "> 10 µM"}

Measured on Muscarinic acetylcholine receptor M4 (Homo sapiens, UniProt P08173), `COc1ccc2[nH]cc(CCN(C(C)C)C(C)C)c2c1` has a documented Ki of > 10 µM

Measured on Muscarinic acetylcholine receptor M4 (Homo sapiens, UniProt P08173), `NCCc1c2c(c(Br)c3c1OCC3)OCC2` has a documented Ki of 0.52 µM

Measured on Muscarinic acetylcholine receptor M4 (Homo sapiens, UniProt P08173), CCOc1cc(OC)c(CC(C)N)cc1OC (configuration not stated) has a documented Ki of > 10 µM

====

- subjectOfTest: UniProtKB P46098
- Sequence (P46098 whole entry): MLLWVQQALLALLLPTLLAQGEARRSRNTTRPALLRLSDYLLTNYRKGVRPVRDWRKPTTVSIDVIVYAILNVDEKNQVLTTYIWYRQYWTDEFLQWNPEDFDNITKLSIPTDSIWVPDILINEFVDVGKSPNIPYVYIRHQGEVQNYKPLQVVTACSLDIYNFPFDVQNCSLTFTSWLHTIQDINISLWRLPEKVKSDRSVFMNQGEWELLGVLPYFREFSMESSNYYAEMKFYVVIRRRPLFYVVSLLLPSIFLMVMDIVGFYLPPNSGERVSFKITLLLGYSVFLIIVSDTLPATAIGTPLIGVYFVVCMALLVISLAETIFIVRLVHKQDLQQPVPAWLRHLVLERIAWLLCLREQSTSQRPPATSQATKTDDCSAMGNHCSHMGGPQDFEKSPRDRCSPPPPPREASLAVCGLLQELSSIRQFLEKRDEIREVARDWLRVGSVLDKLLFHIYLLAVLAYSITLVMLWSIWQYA
pKi: −log10 of the molar value.
Below, each entry is listed alongside its reported pKi.

Example entries begin here.
{"compound": "C[C@@H]1C[C@@H](C)N1C(=O)C1C=C2c3cccc4[nH]cc(c34)C[C@H]2N(C)C1 (stereo partly drawn)", "assayValue": "< 5.00"}
{"compound": "CC(N)Cc1ccc2c(c1)OCO2 (stereo not drawn)", "assayValue": "< 5.00"}

Measured on UniProtKB P46098, `COc1ccc2[nH]cc(CCN(C(C)C)C(C)C)c2c1` has a documented pKi of < 5.00

====

- subjectOfTest: 5-hydroxytryptamine receptor 7 (Homo sapiens)
- Sequence (P34969 whole entry): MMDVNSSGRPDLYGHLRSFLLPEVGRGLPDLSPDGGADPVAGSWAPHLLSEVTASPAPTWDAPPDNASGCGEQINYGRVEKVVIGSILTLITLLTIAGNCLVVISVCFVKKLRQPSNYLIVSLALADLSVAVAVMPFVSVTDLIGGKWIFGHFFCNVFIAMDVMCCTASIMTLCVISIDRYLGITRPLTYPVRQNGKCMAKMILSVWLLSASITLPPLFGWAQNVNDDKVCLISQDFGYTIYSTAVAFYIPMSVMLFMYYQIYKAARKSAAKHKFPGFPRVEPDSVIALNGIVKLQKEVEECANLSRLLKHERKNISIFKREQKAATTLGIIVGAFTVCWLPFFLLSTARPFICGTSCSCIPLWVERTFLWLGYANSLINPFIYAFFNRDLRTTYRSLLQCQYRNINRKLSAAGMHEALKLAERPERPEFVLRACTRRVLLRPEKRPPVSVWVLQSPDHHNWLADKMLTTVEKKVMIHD
- assayNotes: Ray2010 Assay 74
Below, each entry is listed alongside its reported Ki.
Your answer should be a plain number; it is taken to be in µM.

Example entries begin here.
{"compound": "CCOc1cc(OC)c(CC(C)N)cc1OC (stereo not given)", "unitLabel": "µM", "assayValue": 7.16}
{"compound": "CCCN(CCC)CCc1c[nH]c2ccccc12 [dpt]", "unitLabel": "µM", "assayValue": 0.284}

Turning now to a further compound:
Recorded Ki (compound CN(C)CCc1c[nH]c2cc(F)ccc12 [6-f-dmt] ): 0.0408

====

- subjectOfTest: Gamma-aminobutyric acid receptor subunit alpha-1 (Homo sapiens)
- Sequence (P14867 whole entry): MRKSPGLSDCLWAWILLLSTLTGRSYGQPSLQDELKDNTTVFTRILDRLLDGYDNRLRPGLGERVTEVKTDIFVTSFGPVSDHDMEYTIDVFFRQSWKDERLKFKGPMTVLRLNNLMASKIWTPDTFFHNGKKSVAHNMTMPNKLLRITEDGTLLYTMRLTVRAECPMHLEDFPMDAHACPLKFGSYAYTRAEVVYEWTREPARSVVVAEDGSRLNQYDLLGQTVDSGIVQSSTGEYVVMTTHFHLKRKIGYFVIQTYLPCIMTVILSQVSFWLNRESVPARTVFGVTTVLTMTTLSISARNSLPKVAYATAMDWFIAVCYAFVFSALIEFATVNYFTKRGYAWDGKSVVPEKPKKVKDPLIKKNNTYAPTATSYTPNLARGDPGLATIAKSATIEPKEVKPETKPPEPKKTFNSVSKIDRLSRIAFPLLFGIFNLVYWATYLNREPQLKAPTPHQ
- assayNotes: Ray2010 Assay 74
pKi: −log10 of the molar value.
Below, each entry is listed alongside its reported pKi.

Example entries begin here.
{"compound": "NCCc1c2c(c(Br)c3c1OCC3)OCC2", "subjectOfTest": "Gamma-aminobutyric acid receptor subunit alpha-1 (Homo sapiens)", "pKi": "< 5.00"}
{"compound": "CCCN(CCC)CCc1c[nH]c2ccccc12 [dpt]", "subjectOfTest": "Gamma-aminobutyric acid receptor subunit alpha-1 (Homo sapiens)", "pKi": "< 5.00"}

Turning now to a further compound:
Recorded pKi (compound CCSc1cc(OC)c(CC(C)N)cc1OC (stereo not drawn) ): < 5.00

====

- subjectOfTest: Metabotropic glutamate receptor 8 (Homo sapiens)
- Sequence (O00222 whole entry): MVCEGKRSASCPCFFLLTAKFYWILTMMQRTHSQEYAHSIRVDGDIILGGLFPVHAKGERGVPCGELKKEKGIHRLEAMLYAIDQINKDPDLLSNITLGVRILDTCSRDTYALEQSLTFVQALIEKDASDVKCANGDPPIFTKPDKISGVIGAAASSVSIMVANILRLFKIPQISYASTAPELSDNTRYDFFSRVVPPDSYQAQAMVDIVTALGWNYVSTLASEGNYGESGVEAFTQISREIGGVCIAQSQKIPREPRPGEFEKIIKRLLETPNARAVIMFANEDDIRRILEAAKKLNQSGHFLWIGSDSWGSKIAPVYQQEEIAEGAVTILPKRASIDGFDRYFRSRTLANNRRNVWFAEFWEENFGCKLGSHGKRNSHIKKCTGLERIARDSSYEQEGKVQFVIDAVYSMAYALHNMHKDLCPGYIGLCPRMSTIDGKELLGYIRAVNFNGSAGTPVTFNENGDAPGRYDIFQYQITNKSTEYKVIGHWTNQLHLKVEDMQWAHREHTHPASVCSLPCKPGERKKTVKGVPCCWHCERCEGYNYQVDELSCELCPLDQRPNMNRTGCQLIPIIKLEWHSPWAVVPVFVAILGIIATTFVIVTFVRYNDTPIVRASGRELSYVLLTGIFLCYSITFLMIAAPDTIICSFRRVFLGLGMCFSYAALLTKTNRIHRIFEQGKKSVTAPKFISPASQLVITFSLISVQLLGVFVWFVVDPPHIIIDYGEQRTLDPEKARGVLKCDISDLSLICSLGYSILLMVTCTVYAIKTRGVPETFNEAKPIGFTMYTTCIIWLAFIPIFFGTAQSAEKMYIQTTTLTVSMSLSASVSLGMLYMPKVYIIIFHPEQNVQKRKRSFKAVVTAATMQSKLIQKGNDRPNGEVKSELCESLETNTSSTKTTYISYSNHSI
observedProperty: Ki

{"compound": "C[C@@H]1C[C@@H](C)N1C(=O)C1C=C2c3cccc4[nH]cc(c34)C[C@H]2N(C)C1 (stereo partly drawn)", "Ki": "> 10 µM"}
{"compound": "C[C@@H]1C[C@H](C)N1C(=O)C1C=C2c3cccc4[nH]cc(c34)C[C@H]2N(C)C1 (stereo partly drawn) [cis-2a]", "Ki": "> 10 µM"}

Turning now to a further compound:
Measured on Metabotropic glutamate receptor 8 (Homo sapiens), CCN(CC)C(=O)[C@@H]1C=C2c3cccc4[nH]cc(c34)C[C@H]2N(C)C1 [[N-methyl-3H]LSD] has a documented Ki of > 10 µM

====

- subjectOfTest: Sigma intracellular receptor 2 (Homo sapiens, UniProt Q5BJF2)
- Sequence (Q5BJF2 whole entry): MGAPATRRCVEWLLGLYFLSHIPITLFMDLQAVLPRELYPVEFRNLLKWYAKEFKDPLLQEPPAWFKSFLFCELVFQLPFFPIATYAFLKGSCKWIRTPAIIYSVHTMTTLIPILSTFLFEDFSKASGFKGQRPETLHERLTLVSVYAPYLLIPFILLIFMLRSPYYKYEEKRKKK
- assayNotes: Ray2010 Assay 74
pKi: −log10 of the molar value.
Below, each entry is listed alongside its reported pKi.

{"compound": "COc1cc(CC(C)N)c(OC)cc1C (stereo unspecified)", "pKi": "< 5.00"}
{"compound": "COc1cc(CC(C)N)cc(OC)c1OC (stereo unspecified)", "pKi": 6.27}
{"compound": "CCSc1cc(OC)c(CCN)cc1OC", "pKi": "< 5.00"}
{"compound": "COc1cc(CCN)c(OC)cc1Br", "pKi": "< 5.00"}
{"compound": "CN(C)CCc1c[nH]c2ccccc12", "pKi": "< 5.00"}

Turning now to a further compound:
Recorded pKi (compound `COc1ccc2[nH]cc(CCN(C(C)C)C(C)C)c2c1` ): 5.52

====

# 5-hydroxytryptamine receptor 2A (Homo sapiens): pKi values follow
# Sequence (P28223 whole entry): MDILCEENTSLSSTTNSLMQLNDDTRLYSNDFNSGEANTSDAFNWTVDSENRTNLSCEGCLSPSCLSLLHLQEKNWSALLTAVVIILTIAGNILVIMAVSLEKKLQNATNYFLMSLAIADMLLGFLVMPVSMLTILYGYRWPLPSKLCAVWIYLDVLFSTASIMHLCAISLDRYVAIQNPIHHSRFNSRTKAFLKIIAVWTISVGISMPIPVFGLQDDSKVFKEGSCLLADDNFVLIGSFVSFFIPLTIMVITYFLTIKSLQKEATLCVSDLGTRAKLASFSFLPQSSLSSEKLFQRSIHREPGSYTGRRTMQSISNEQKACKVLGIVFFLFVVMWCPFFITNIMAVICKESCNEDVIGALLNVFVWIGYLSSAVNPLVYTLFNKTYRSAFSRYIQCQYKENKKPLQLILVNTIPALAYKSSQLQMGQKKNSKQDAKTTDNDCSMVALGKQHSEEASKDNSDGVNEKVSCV
Scale for pKi: -log10 of concentration given in mol/L; no unit attached.

{"compound": "COc1ccc2[nH]cc(CCN(C)C(C)C)c2c1 [5-meo-mipt]", "pKi": 6.35}
{"compound": "CN(C)CCc1c[nH]c2ccccc12 [2-(1H-indol-3-yl)-N,N-dimethylethanamine]", "pKi": 5.63}
{"compound": "C[C@@H]1C[C@@H](C)N1C(=O)C1C=C2c3cccc4[nH]cc(c34)C[C@H]2N(C)C1 (stereo not given in full) [rr-2b]", "pKi": 6.16}

Turning now to a further compound:
Recorded pKi (compound `NCCc1c2c(c(Br)c3c1OCC3)OCC2` ): 7.94

====

# Beta-1 adrenergic receptor (Homo sapiens, UniProt P08588): pKi values follow
# Sequence (P08588 whole entry): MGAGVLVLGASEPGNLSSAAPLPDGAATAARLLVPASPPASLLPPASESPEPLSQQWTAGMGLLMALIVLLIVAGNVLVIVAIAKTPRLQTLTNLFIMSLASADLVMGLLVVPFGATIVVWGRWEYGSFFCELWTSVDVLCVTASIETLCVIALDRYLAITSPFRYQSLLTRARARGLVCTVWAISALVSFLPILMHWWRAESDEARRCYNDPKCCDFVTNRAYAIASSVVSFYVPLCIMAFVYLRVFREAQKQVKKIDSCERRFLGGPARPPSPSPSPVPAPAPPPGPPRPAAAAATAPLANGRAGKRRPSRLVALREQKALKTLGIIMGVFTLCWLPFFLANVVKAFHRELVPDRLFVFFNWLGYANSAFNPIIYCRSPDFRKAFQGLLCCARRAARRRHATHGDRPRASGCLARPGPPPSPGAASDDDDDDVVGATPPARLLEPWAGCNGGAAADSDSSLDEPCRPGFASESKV
pKi: −log10 of the molar value.

{"compound": "CCSc1cc(OC)c(CC(C)N)cc1OC (centres undefined)", "subjectOfTest": "Beta-1 adrenergic receptor (Homo sapiens, UniProt P08588)", "assayValue": 5.17}

Measured on Beta-1 adrenergic receptor (Homo sapiens, UniProt P08588), CCc1cc(OC)c(CC(C)N)cc1OC (centres undefined) has a documented pKi of 5.24

Measured on Beta-1 adrenergic receptor (Homo sapiens, UniProt P08588), CN(C)CCc1c[nH]c2ccccc12 [2-(1H-indol-3-yl)-N,N-dimethylethanamine] has a documented pKi of < 5.00

Measured on Beta-1 adrenergic receptor (Homo sapiens, UniProt P08588), COc1cc(CCN)cc(OC)c1OC [3,4,5-trimethoxyphenylethylamine] has a documented pKi of < 5.00

Measured on Beta-1 adrenergic receptor (Homo sapiens, UniProt P08588), COc1ccc2[nH]cc(CCN(C)C(C)C)c2c1 [5-meo-mipt] has a documented pKi of < 5.00

Measured on Beta-1 adrenergic receptor (Homo sapiens, UniProt P08588), COc1ccc2[nH]cc(CCN(C)C)c2c1 [3-(2-DIMETHYLAMINOETHYL)-5-METHOXYINDOLE] has a documented pKi of < 5.00

Measured on Beta-1 adrenergic receptor (Homo sapiens, UniProt P08588), CCCN(CCC)CCc1c[nH]c2ccccc12 [dpt] has a documented pKi of < 5.00
